Hi there, I'd appreciate the recorded manual score for every entry that follows.
# system-tested: G protein-activated inward rectifier potassium channel 2 (Homo sapiens) + G protein-activated inward rectifier potassium channel 1 (Homo sapiens) (UniProt P48051+P48549)
# Sequence (P48051 whole entry, looked up): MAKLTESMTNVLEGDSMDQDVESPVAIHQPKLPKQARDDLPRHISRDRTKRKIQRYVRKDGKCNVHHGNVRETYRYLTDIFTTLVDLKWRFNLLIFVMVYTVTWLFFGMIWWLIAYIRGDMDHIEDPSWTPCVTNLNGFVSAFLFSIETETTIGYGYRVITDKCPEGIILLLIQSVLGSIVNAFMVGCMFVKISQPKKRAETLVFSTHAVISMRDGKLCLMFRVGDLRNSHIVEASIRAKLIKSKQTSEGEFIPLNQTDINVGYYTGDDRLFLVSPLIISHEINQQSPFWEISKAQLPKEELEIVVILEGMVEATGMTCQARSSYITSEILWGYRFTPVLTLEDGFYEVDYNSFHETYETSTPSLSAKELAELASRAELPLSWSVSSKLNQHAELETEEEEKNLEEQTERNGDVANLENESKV
# Sequence (P48549 whole entry, looked up): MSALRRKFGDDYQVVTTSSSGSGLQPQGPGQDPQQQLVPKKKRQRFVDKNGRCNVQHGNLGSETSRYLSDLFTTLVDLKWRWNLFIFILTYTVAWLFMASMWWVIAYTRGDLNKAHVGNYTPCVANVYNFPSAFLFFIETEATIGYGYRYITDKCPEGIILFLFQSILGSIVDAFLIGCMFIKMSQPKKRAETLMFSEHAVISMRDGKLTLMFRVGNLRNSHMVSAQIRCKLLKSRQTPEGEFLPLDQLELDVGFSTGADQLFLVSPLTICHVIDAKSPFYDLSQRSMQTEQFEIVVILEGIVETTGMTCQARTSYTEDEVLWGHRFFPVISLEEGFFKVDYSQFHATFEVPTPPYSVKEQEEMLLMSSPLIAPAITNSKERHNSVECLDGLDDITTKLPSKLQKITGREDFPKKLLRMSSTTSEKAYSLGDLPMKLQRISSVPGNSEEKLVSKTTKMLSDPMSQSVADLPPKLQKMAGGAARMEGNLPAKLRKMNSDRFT
# measurement-protocol: GIRK1/2 thallium flux modulators, retest, confirmation, cell-based, HEK293 rmGlu8/hGIRK1/2, FluoZin-2 (AID 623911)
# study-conditions: HEK293 rmGlu8/hGIRK1/2, thallium flux FluoZin-2; actives lie on both sides; glutamate co-added at its EC20 level
In all, about 2,100 compounds went through this assay and about 770 (37%) were called active. Some of the results follow.
Enter the number alone.

**Q:** What manual score value was documented for this compound, NC(=O)COc1ccc(C2c3c(oc4ccccc4c3=O)C(=O)N2CC2CCCO2)cc1 (stereo unspecified) ?
**A:** 0

**Q:** Entry CCN(C(=O)c1cc(Cl)ccc1OC)C1CCCCC1 has what manual score?
**A:** -0.5

**Q:** What does the record list as manual score for COc1cccc(N(CC(=O)Nc2cccc(C(C)=O)c2)S(C)(=O)=O)c1 ?
**A:** 0

**Q:** Please report the recorded manual score for CN(Cc1ccccc1)C(=S)NC(=O)C1CCCCC1 .
**A:** 0

**Q:** # get_value(readout='manual score', item= O=C(NNS(=O)(=O)c1ccccc1F)c1cccc(S(=O)(=O)N2CCOCC2)c1 )
**A:** 0

**Q:** Which manual score is reported for this compound? COc1cccc(NC(=O)COc2ccc(C)cc2)c1
**A:** 0

**Q:** For the compound shown here, COc1ccccc1/C=C/C(=O)NC(=S)N(C)C1CCCCC1 , give the reported manual score.
**A:** 1

**Q:** Value lookup for manual score; key = CCCCSc1nc(N)c(NC(=O)c2ccco2)c(=O)[nH]1
**A:** 0

**Q:** What value of manual score has been recorded for this entry: O=C(NC(Nc1nc2ccc([N+](=O)[O-])cc2s1)(C(F)(F)F)C(F)(F)F)c1ccccc1
**A:** 1

**Q:** Please look up its manual score: Brc1ccc(-c2nnc3c4ccccc4nc(N4CCOCC4)n23)cc1
**A:** 0

**Q:** May I ask what manual score has been recorded for O=c1c(O)c(-c2cccs2)oc2ccccc12 ?
**A:** 3
